# System: Cell line
# Method notes: Percentage of alpha-MSH stimulated cAMP level at 10 uM
# Type: functional, Homo sapiens
Property label: IA

// solved cases for IA follow
[
  {
    "Compound": "O=C(C(O)c1ccc(Cl)cc1)N1CCN(c2ccccc2CNCCc2cccs2)CC1 (centres undefined)",
    "IA": "<45%"
  },
  {
    "Compound": "CC(NCc1ccccc1N)c1ccccc1N1CCN(C(=O)[C@@H](Cc2ccc(Cl)cc2)NC(=O)CCN)CC1 (some centres undefined)",
    "IA": "100%"
  },
  {
    "Compound": "NCCC(=O)OC(Cc1ccc(Cl)cc1)C(=O)N1CCN(c2ccccc2CNCCc2cccs2)CC1 (centres undefined)",
    "IA": "<45%"
  }
]

Query: Reported IA, compound O=C(CC1CCCN1)N[C@H](Cc1ccc(Cl)cc1)C(=O)N1CCN(c2ccccc2CNCCc2cccs2)CC1 (some centres undefined) : ____
Reply: 57%

Query: IA lookup needed for CC(C)(N)C(=O)N[C@H](Cc1ccc(Cl)cc1)C(=O)N1CCN(c2ccccc2CNCCc2cccs2)CC1 , thanks.
Reply: 80%

Query: Requested read-out: IA. Entry: NC(C(=O)N1CCN(c2ccccc2CNCCc2cccs2)CC1)c1ccc(Cl)cc1 (centres undefined)
Reply: <45%

Query: Endpoint output: IA of O=C([C@@H](Cc1ccc(Cl)cc1)NS(=O)(=O)CC(F)(F)F)N1CCN(c2ccccc2CNCCc2cccs2)CC1 . Value?
Reply: <45%

Query: What value of IA has been recorded for this entry: O=C(N[C@H](Cc1ccc(Cl)cc1)C(=O)N1CCN(c2ccccc2CNCCc2cccs2)CC1)C1CCCNC1 (some centres undefined)
Reply: 12%

Query: Any idea what its IA is? The compound is N[C@H](Cc1ccc(Cl)cc1)C(=O)N1CCN(c2ccccc2CNCCc2cccs2)CC1
Reply: 85%

* * *

# Experimental system: Melanocortin receptor 4 (Homo sapiens, UniProt P32245)
# Sequence (P32245 whole entry): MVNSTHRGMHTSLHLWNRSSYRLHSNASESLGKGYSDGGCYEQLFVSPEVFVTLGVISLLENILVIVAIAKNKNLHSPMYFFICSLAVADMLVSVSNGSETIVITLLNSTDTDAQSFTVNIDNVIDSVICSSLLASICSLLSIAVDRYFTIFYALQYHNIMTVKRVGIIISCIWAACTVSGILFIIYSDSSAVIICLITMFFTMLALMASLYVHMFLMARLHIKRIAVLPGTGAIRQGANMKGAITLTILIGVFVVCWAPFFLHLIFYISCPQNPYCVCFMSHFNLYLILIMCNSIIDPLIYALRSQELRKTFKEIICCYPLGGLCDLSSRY
# Method notes: Binding affinity towards human melanocortin 4 receptor expressed in HEK 293 cells was determined by using [125I]NDP-MSH as radioligand
# Format: cell-based, HEK293
Property label: Ki (nM)
All answers are understood in nM, so give the number only.

Take a look at these entries with their results.
[
  {
    "Compound": "NCCC(=O)OC(Cc1ccc(Cl)cc1)C(=O)N1CCN(c2ccccc2CNCCc2cccs2)CC1 (stereo not drawn)",
    "Unit tag": "nM",
    "Ki": 290
  },
  {
    "Compound": "O=C(N[C@H](Cc1ccc(Cl)cc1)C(=O)N1CCN(c2ccccc2CNCCc2cccs2)CC1)C1CCCNC1 (stereo partly drawn)",
    "Unit tag": "nM",
    "Ki": 15
  },
  {
    "Compound": "COCC(=O)N[C@H](Cc1ccc(Cl)cc1)C(=O)N1CCN(c2ccccc2CNCCc2cccs2)CC1",
    "Unit tag": "nM",
    "Ki": 70
  },
  {
    "Compound": "O=C(N[C@H](Cc1ccc(Cl)cc1)C(=O)N1CCN(c2ccccc2CNCCc2cccs2)CC1)C1CCCCN1 (stereo partly drawn)",
    "Unit tag": "nM",
    "Ki": 75
  },
  {
    "Compound": "O=C(N[C@H](Cc1ccc(Cl)cc1)C(=O)N1CCN(c2ccccc2CNCCc2cccs2)CC1)C1CCNCC1",
    "Unit tag": "nM",
    "Ki": 26
  },
  {
    "Compound": "N[C@H](Cc1ccc(Cl)cc1)C(=O)N1CCN(c2ccccc2CNCCc2cccs2)CC1",
    "Unit tag": "nM",
    "Ki": 600
  }
]

Query: # query: Ki of entry CC(c1ccccc1N1CCN(C(=O)[C@@H](Cc2ccc(Cl)cc2)NC(=O)CCN)CC1)N1CCN(C)CC1 (stereo partly drawn)
Reply: 86

Query: Tell me the measured Ki of NCCCC(=O)N[C@H](Cc1ccc(Cl)cc1)C(=O)N1CCN(c2ccccc2CNCCc2cccs2)CC1 , please.
Reply: 14

Query: Return reported Ki; argument: O=C([C@@H](Cc1ccc(Cl)cc1)NS(=O)(=O)CC(F)(F)F)N1CCN(c2ccccc2CNCCc2cccs2)CC1
Reply: 410
